System: E. coli 76 KPC-2(+)
Test description: MIC of tested agent alone, microdilution
Format: cell-based
Measurement parameters: Escherichia coli; read-out: MIC of agent alone
Outcome measure: MIC (µg/mL)

In the examples that follow, each entry is paired with its recorded MIC.
OB(O)c1cc(F)ccc1F    100
OB(O)c1cc(F)c(F)c(B(O)O)c1    200
OB(O)c1cc(F)c(B(O)O)cc1F    100
OB(O)c1ccc(B(O)O)c(F)c1F    200
OB(O)c1cc(F)cc(B(O)O)c1    400
OB(O)c1cc(Br)c(B(O)O)cc1Br    100
OB(O)c1ccccc1B(O)O    400
OB(O)c1cc(B(O)O)c(F)cc1F    200
OB(O)c1ccc(B(O)O)c(F)c1    400

A: OB(O)c1cc(F)c(B(O)O)c(F)c1
B: OB(O)c1cc(F)c(B(O)O)c(F)c1F
Query: Returns: the label, A or B , whose recorded MIC is the lower number. Respond using the label that marks the chosen record.
Reply: B
(B: 100 µg/mL, A: 400 µg/mL)

###

Let's look at some compounds and their measured zone of inhibition at 300 µg/disc.
Test system: E. coli 77 CMY-2-positive
Test description: combination disc test CDT-AmpC
Assay type: cell-based
Measurement parameters: Escherichia coli; agent 0.3 mg per disc; read-out: Diameter of inhibition zone, CAZ-30 disc with agent
# value in mm; strip the unit string

Examples from the recorded data:
COc1c(B(O)O)cccc1B(O)O    20
OB(O)c1ccc(C(F)(F)F)cc1B(O)O    17
OB(O)c1cc(B(O)O)c(B(O)O)s1    22
OB(O)c1ccc(F)cc1B(O)O    20
OB(O)c1ccsc1B(O)O    20
OB(O)c1ccccc1B(O)O    23

Query: Can you share its zone of inhibition at 300 µg/disc? I mean this compound: `OB(O)c1cccc(B(O)O)c1`
Reply: 22

Query: Now the same for `OB(O)c1ccccc1S`
Reply: 16

Query: How about `OB(O)c1cc(B(O)O)cc(B(O)O)c1` ?
Reply: 20

###

# The lowest FICI with ceftazidime annotations
Test system: E. coli 77 CMY-2-positive
Test description: checkerboard microdilution, antibiotic plus tested agent
Type: cell-based, Escherichia coli
Procedure: To examine the ability of tested agents to inhibit various carbapenemases and AmpC-enzymes, their synergy with antibiotics against β-lactamase-producing strains was assessed by checkerboard microdilution assay, with slight modification. […] Parallel, MICs of tested agents and PBA alone were determined by the microdilution assay. Following the incubation, antibiotic MICs in the presence of each agent’s concentration were determined. […]
# print the numeric value only

// solved cases for The lowest FICI with ceftazidime follow
OB(O)c1cc(F)c(B(O)O)c(F)c1    0.17
OB(O)c1cc(F)cc(B(O)O)c1    0.10

Query: What The lowest FICI with ceftazidime value was documented for this compound, `OB(O)c1cc(F)c(F)c(B(O)O)c1` ?
Reply: 0.14

Query: Can you check `OB(O)c1cc(F)c(B(O)O)c(F)c1F` next?
Reply: 0.21

Query: And the next one, `OB(O)c1ccc(B(O)O)c(B(O)O)c1` ?
Reply: 0.27

Query: Consider next the compound `OB(O)c1ccccc1B(O)O` in the same way.
Reply: 0.29

Query: Further, for `OB(O)c1cc(B(O)O)c(F)cc1F` ?
Reply: 0.17

Query: How about `OB(O)c1cc(F)ccc1F` ?
Reply: 0.14

###

System: E. faecalis ATCC 29212
Test description: direct antimicrobial activity (disc-diffusion, MIC, MBC)
Format: cell-based
Measurement parameters: Enterococcus faecalis, ATCC29212
Outcome measure: MIC (µg/mL)

OB(O)c1cc(C(F)(F)F)c(B(O)O)cc1C(F)(F)F [1h]    400
OB(O)c1ccccc1S [7c, 2-mercaptophenylboronic acid]    25
OB(O)c1ccc(C(F)(F)F)cc1B(O)O [3e]    200
OB(O)c1cc(F)ccc1F [7a, 2,5-difluorophenylboronic acid]    400
OB(O)c1cc(F)cc(B(O)O)c1 [2b]    400

A: OB(O)c1ccc(F)cc1B(O)O [3c]
B: OB(O)c1ccsc1B(O)O [5a, thiophene-2,3-diboronic acid]
C: OB(O)c1cc(F)c(F)c(B(O)O)c1 [2d]
Query: Hey, can you sort those molecules up there by MIC, smallest first? Output spec: labels arranged per the requested ranking.
Reply: B, C, A

a: OB(O)c1cc(B(O)O)c(F)cc1F [2c]
b: CC(=O)NC[C@H]1CN(c2ccc(N3CCOCC3)c(F)c2)C(=O)O1 [LIN, linezolid, reference compound]
Query: From the items above, decide which of a and b has the lower MIC reading. Answer with the label corresponding to your selection.
Reply: b

###

Tested on: E. coli 77 CMY-2-positive
Test description: combination disc test CDT-AmpC
Assay type: cell-based
Measurement parameters: Escherichia coli; agent 0.1 mg per disc; read-out: Diameter of inhibition zone, CAZ-30 disc with agent
Outcome measure: zone of inhibition at 100 µg/disc (mm)
Kindly provide the numeric value in mm only, without the unit symbol.

Study these solved cases before continuing.
OB(O)c1cc(F)c(B(O)O)c(F)c1F [1f]    21
OB(O)c1cc(F)c(B(O)O)cc1F [1e]    20
OB(O)c1cc(Br)c(B(O)O)cc1Br [1i]    16
OB(O)c1cc(F)cc(B(O)O)c1 [2b]    21
OB(O)c1cc(F)c(F)c(B(O)O)c1 [2d]    21
OB(O)c1cc(F)c(B(O)O)c(F)c1 [1d]    20

Query: Item OB(O)c1ccc(B(O)O)c(F)c1 [1b] with E. coli 77 CMY-2-positive - zone of inhibition at 100 µg/disc?
Reply: 20

Query: Also OB(O)c1ccc(B(O)O)c(F)c1F [1c] ?
Reply: 20

Query: What about OB(O)c1cc(B(O)O)c(F)cc1F [2c] ?
Reply: 19

###

Test system: E. coli 77 CMY-2(+)
Test description: MIC of tested agent alone, microdilution
Format: cell-based
Measurement parameters: Escherichia coli; read-out: MIC of agent alone
Outcome measure: MIC (µg/mL)

OB(O)c1ccc(B(O)O)c(F)c1 [1b]    400

I: OB(O)c1cc(F)c(B(O)O)c(F)c1F [1f]
II: OB(O)c1cc(F)c(B(O)O)c(F)c1 [1d]
Query: // compare: I vs II , metric MIC, want the smaller State the label of the item chosen.
Reply: I
(I: 100 µg/mL, II: 400 µg/mL)

###

Test description: MTT-based viability assay
Type: cell-based
Measurement parameters: human
Outcome measure: viability at 72 h, 12.5 mg/L (%)
Write the answer as a number in %, unit excluded.

Query: Requested read-out: viability at 72 h, 12.5 mg/L. Entry: `OB(O)c1cc(F)ccc1F`
Reply: 83

###

Readings of zone of inhibition at 300 µg/disc for the listed compounds
System: K. pneumoniae ATCC 700603 ESBL(+)
Test description: screening test of direct antimicrobial activity (STDA), disc-diffusion
Type: cell-based
Measurement parameters: Klebsiella pneumoniae, ATCC700603; 0.3 mg per disc; - no zone; read-out: Diameter of inhibition zone around disc with tested agent
// units = mm; emit number, no label

Reference set, count: 3
OB(O)c1cc(F)ccc1F    18
OB(O)c1cc(B(O)O)c(F)cc1F    13
OB(O)c1cc(F)c(B(O)O)c(F)c1    14

Query: What does the data say about its zone of inhibition at 300 µg/disc? Entry: `OB(O)c1cc(F)c(B(O)O)c(F)c1F`
Reply: 18

Query: Input `OB(O)c1cc(F)c(F)c(B(O)O)c1`
Reply: 11

Query: Moving on to the next compound: `OB(O)c1ccc(B(O)O)c(F)c1F`
Reply: 14

Query: Same question for `OB(O)c1cc(F)c(B(O)O)cc1F` please.
Reply: 14

Query: Try the compound `OB(O)c1cc(Br)c(B(O)O)cc1Br`
Reply: 13

Query: Here is the next compound: `O=Cc1cc(F)ccc1B(O)O`
Reply: 13

Query: Follow-up entry: `OB(O)c1cc(I)c(B(O)O)cc1I`
Reply: 11

Query: Entry `OB(O)c1ccc(B(O)O)c(F)c1` please
Reply: 12

###

Tested on: S. aureus ATCC 6538P
Test description: direct antimicrobial activity (disc-diffusion, MIC, MBC)
Format: cell-based
Measurement parameters: Staphylococcus aureus, ATCC6538P
Outcome measure: MIC (µg/mL)

As a guide, the following entries are already answered.
OB(O)c1ccc(B(O)O)cc1 [1a]    200
OB(O)c1ccc(C(F)(F)F)cc1B(O)O [3e]    100
OB(O)c1cc(F)cc(B(O)O)c1 [2b]    100
OB(O)c1cc(F)c(B(O)O)cc1F [1e]    12.5
OB(O)c1ccsc1B(O)O [5a, thiophene-2,3-diboronic acid]    100
OB(O)c1cc(F)c(B(O)O)c(F)c1F [1f]    50

P: OB(O)c1cc(Br)c(B(O)O)cc1Br [1i]
Q: OB(O)c1cc(B(O)O)c(B(O)O)s1 [5c, thiophene-2,3,5-triboronic acid]
Query: Sorting ascending by MIC, which comes first: P or Q ? Answer format: the label of the selected item.
Reply: P

a: OB(O)c1ccc(Br)c(B(O)O)c1 [2f]
b: OB(O)c1ccccc1S [7c, 2-mercaptophenylboronic acid]
Query: Between the entries labelled a and b , which has a larger MIC value on record? Identify your pick by its label.
Reply: a

Where do these numbers come from? They come from paper PMC10648349.
